Experiment: Measurement of Sodium Ion Channel Blocking Effects: In order to measure the sodium ion channel blocking effect, an IonFlux16 Auto patch clamp system (Fluxion, Inc.) and a plate for exclusive use were used. The cells were distributed in an extracellular solution (4 mM KCl, 138 mM NaCl, 1 mM MgCl2, 1.8 mM CaCl2, 5.6 mM glucose, 10 mM HEPES, pH 7.45), and then dispensed in the specified region of the plate, and each of the prepared compound samples was diluted at various concentrations, and then dispensed in the specified region of the plate.
Assay type: cell-based
pIC50: −log10 of the molar value.
Outcome Measure: pIC50

Look over these answered cases.
Compound	pIC50
CNC1CCN(c2ccccc2Nc2ccc(S(=O)(=O)Nc3cscn3)cc2)C1 (centres undefined)	7.29
CNCCN(C)c1cc(F)ccc1Nc1cc(F)c(S(=O)(=O)Nc2cc(C)[nH]n2)cc1Cl	6.62
CNCCN(C)c1cc(OC)ccc1Nc1cc(F)c(S(=O)(=O)Nc2nccs2)cc1Cl	7.70
CNC1CCN(c2cc(C(F)(F)F)ccc2Nc2ccc(S(=O)(=O)Nc3cscn3)c(F)c2)C1 (centres undefined)	7.24
CNCCN(C)c1cc(C(F)(F)F)ccc1Nc1cc(F)c(S(=O)(=O)Nc2cscn2)cc1Cl	7.52

1 = CNCCN(C)c1ccccc1Nc1cc(F)c(S(=O)(=O)Nc2ncc(F)s2)cc1Cl
2 = CNC1CCN(c2cc(OC(F)(F)F)ccc2Nc2ccc(S(=O)(=O)Nc3cscn3)cc2)C1 (centres undefined)
3 = NC1CCN(c2cc(F)ccc2Nc2cc(F)c(S(=O)(=O)Nc3cscn3)cc2Cl)C1 (centres undefined)
4 = CNCCN(C)c1cc(C(F)(F)F)ccc1Nc1cc(F)c(S(=O)(=O)Nc2nccs2)cc1Cl
Prompt: Sort ascending by pIC50. Answer format: the labels, in the requested order.
Completion: 2, 3, 1, 4
(2: 6.35, 3: 6.69, 1: 7.57, 4: 8.00)
